This listing pairs molecules with measured EC50.
Tested on: HSP90
Assay: fluorescence polarization HSP90 binding assay using SKBr3 cancer cell lysate
Conditions: fluorescence polarization
assay_endpoint: EC50 (nM)

molecule="Nc1ncnc2c1nc(Sc1cc3c(cc1I)OCO3)n2CCCNC(=O)CCCC[C@@H]1SC[C@@H]2NC(=O)N[C@@H]21 [PU-H71-biotin3]" reported_value=44.3
molecule="CC(C)N(CCCn1c(Sc2cc3c(cc2I)OCO3)nc2c(N)ncnc21)C(=O)CCOCCOCCOCCOCCNC(=O)CCCC[C@@H]1SC[C@@H]2NC(=O)N[C@@H]21 [PU-H71-biotin9]" reported_value=110
molecule="CC(C)N(CCCn1c(Sc2cc3c(cc2I)OCO3)nc2c(N)ncnc21)C(=O)CCCCCNC(=O)CCCCCNC(=O)CCCC[C@@H]1SC[C@@H]2NC(=O)N[C@@H]21 [PU-H71-biotin8]" reported_value=76.9
molecule="Nc1ncnc2c1nc(Sc1cc3c(cc1I)OCO3)n2CCCNC(=O)CCCCCNC(=O)CCCC[C@@H]1SC[C@@H]2NC(=O)N[C@@H]21 [PU-H71-biotin4]" reported_value=34.8
